Test: Cell Viability - Hek293 (AID 427);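 further: cells exposed to compound for 40 hours at 37 °C before reading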
Settings: qHTS
From the text: NIH Chemical Genomics Center [NCGC] NIH Molecular Libraries Screening Centers Network [MLSCN] National Institutes of Environmental Health Sciences [NIEHS] National Toxicology Program [NTP] We have developed a 1536-well cell-based assay for quantitative high throughput screening (qHTS) against a number of cell lines to determine in vitro cytotoxicity of small molecules. […] 8. Detection; Luminescence; Viewlux plate reader […]
Inconclusive results are not listed. Calls of active or inactive are those of the source.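 How the source made its calls: active means compounds whose dose-response curve shows a full or clear partial loss of cell viability, called from curve shape rather than a numeric limit; inconclusive means weak partial curves or an effect only at the top dose; inactive means no dose-dependent loss of viability.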
Outcomes: True (active), False (inactive)

Molecule | Assigned class
CC(=O)Oc1ccc(C(c2ccc(OC(C)=O)cc2)c2ccccn2)cc1 | False
CC(O)C(=O)O (configuration not stated) | False
COc1cccc2c1C(=O)c1c(O)c3c(c(O)c1C2=O)C[C@@](O)(C(=O)CO)C[C@@H]3O[C@H]1C[C@H](N)[C@H](O)[C@H](C)O1 | True
Nc1ccc(C(=O)O)cc1 | False
O=C1OC(c2ccc(O)cc2)(c2ccc(O)cc2)c2ccccc21 | False
O=C(O)CCCCC(=O)O | False
COC1=CC(=O)C[C@@H](C)[C@]12Oc1c(Cl)c(OC)cc(OC)c1C2=O | False

----------
biological target: Single-stranded DNA cytosine deaminase (Homo sapiens) (UniProt Q9GZX7); assay: Validation qHTS assay for inhibitors of Activation Induced Cytidine Deaminase (AID): AID signal (AID 1347429); details: Recombinant AID, FRET ssDNA deamination with UDG, fluorescence; series mostly up to 115 µM
Sequence (Q9GZX7 whole entry, looked up): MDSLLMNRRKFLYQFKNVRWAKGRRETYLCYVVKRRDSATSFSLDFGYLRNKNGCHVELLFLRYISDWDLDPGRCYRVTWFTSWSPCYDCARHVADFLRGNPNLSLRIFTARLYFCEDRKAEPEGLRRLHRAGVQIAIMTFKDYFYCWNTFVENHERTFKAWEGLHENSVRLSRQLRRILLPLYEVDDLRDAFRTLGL
Activity calls are given as the source filed them. Calls follow the shape of the dose curve; as a rule, active = well fitted inhibition curve with a large enough effect; inconclusive = small, poorly fitted or top-dose-only effect; inactive = no such curve, though single readings can be large or run the other way.
Outcome codes: class 1 = active, class 0 = inactive

Compound | Assigned class
CCC(NC(C)C)C(O)c1ccc(O)c(O)c1 (stereo not given) | class 0
CC(=O)O[C@H]1C[C@@H]2CC[C@@H]3[C@H](CC[C@@]4(C)[C@H]3C[C@H]([N+]3(C)CCCCC3)[C@@H]4OC(C)=O)[C@@]2(C)C[C@@H]1[N+]1(C)CCCCC1 | class 1
CC(C)COC(=O)OCN1C(=O)CN(CCN2CC(=O)N(COC(=O)OCC(C)C)C(=O)C2)CC1=O | class 0
N[C@H](CO)C(=O)O | class 0
Oc1ccc(O)cc1 | class 0
CNCCC(Oc1ccccc1C)c1ccccc1 (stereo not given) | class 0
COC(=O)[C@H]1[C@H]2C[C@H]3c4[nH]c5ccccc5c4CCN3C[C@H]2CC[C@@H]1O | class 0
CC1(C)CCC(NC(=O)[C@@H](N)CCC(=O)O)CC1 | class 0
C1CCc2nnnn2CC1 | class 0
O=C1CCC(c2ccc(-n3ccnc3)cc2)=NN1 | class 0

----------
experiment: Primary qHTS for inhibitors of nuclear receptor binding SET domain protein 2 (NSD2) in an RCH-ACV wild type WT cells (2C) (AID 1645877); conditions: RCH-ACV (leukaemia line) NSD2 WT (2C) viability, CellTiter-Glo, 72 h; series mostly up to 44.9 µM; further: nearly all actives have a fitted effect of over 70% in size
Records with an inconclusive call do not appear. The source made the active and inactive calls. Calls come from the whole dose curve; as a rule, active = well fitted inhibition curve with a large enough effect; inconclusive = small, poorly fitted or top-dose-only effect; inactive = no such curve, though single readings can be large or run the other way.
Labels: YES for active, NO for inactive

Compound | Assigned class
C=C1C[C@H]2[C@@H]3C=C(C)C4=CC(=O)CC[C@]4(C)[C@H]3CC[C@]2(C)[C@@]1(OC(C)=O)C(C)=O | YES
COc1cc(C=C2CCC/C(=C\c3ccc(O)c(OC)c3)C2=O)ccc1O | YES
Cc1cc(O)c(C(C)C)cc1Cl | NO
CCC(=O)c1c(O)cc(O)cc1O | NO
N[C@@H](CCC(=O)N[C@@H](CS)C(=O)NCC(=O)O)C(=O)O | NO
CC(=O)N/N=C/c1ccc([N+](=O)[O-])o1 | YES
CC(O)C(=O)O (stereo unspecified) | NO
O=c1[nH]c(=O)n([C@H]2CCCO2)cc1F | NO
CN1CCN(CCCN2c3ccccc3Sc3ccc(S(=O)(=O)N(C)C)cc32)CC1 | YES
CCOC(=O)OC(C)OC1=C(C(=O)Nc2ccccn2)N(C)S(=O)(=O)c2ccccc21 (stereo unspecified) | NO
CC1(C)O[C@@H]2C[C@H]3[C@@H]4C[C@H](F)C5=CC(=O)CC[C@]5(C)[C@H]4[C@@H](O)C[C@]3(C)[C@]2(C(=O)CO)O1 | YES
C=CCc1ccc(O)c(OC)c1 | NO
Cc1ccnc(NS(=O)(=O)c2ccc(N)cc2)n1 | NO
CCOc1ccc(Cc2nccc3cc(OCC)c(OCC)cc23)cc1OCC | YES
CN(C(=O)CN(CCO)CC(=O)N(C)C(C)(C)Cc1ccccc1)C(C)(C)Cc1ccccc1 | YES
O=C(CCCN1CCC(O)(c2ccc(Br)cc2)CC1)c1ccc(F)cc1 | YES
C=C1C(=C/C=C2\CCC[C@]3(C)[C@@H]([C@H](C)/C=C/[C@@H](O)C4CC4)CC[C@@H]23)C[C@@H](O)C[C@@H]1O | YES
CN1C(CCl)Nc2cc(Cl)c(S(N)(=O)=O)cc2S1(=O)=O (stereo unspecified) | NO
NCCCC[C@H](N[C@@H](CCc1ccccc1)C(=O)O)C(=O)N1CCC[C@H]1C(=O)O | NO
Nc1nc2ncc(CNc3ccc(C(=O)N[C@@H](CCC(=O)O)C(=O)O)cc3)nc2c(=O)[nH]1 | NO
CN(C)CC/C=C1/c2ccccc2COc2ccc(CC(=O)O)cc21 | NO

----------
system: JEG-3; test: Primary qHTS to identify gynecologic anti-cancer compounds using libraries of approved drugs and bioactive compounds (AID 1345084); conditions: Gynecologic cancer cell panel viability, ATPlite luminescence, 48 h; series mostly up to 57.5 µM; further: nearly all actives have a fitted effect of over 55% in size
Results filed as inconclusive are left out. The source made the active and inactive calls. Calls come from the whole dose curve; as a rule, active = well fitted cell-killing curve with a large enough effect; inconclusive = small, poorly fitted or top-dose-only effect, or effect the other way; inactive = flat fitted curve, though single readings scatter.

Compound | outcome
C/C=C/c1ccc(OC)cc1 | inactive
CC(Cc1ccccc1)(NC(=O)CN)c1ccccc1 (stereo not drawn) | inactive
CC(=O)OCC(=O)[C@@]1(O)CC[C@H]2[C@@H]3CCC4=CC(=O)C=C[C@]4(C)[C@H]3[C@@H](O)C[C@@]21C | inactive

----------
assay: High Content Imaging Cell-Based qHTS for Inhibitors of the mTORC1 Signaling Pathway in MEF (Tsc2-/-, p53-/-) Cells (AID 2666); conditions: at 38.3 µM (top of the series);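 further: percent of cells scored positive for phospho-rpS6 Ser235/236 immunostaining by imaging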
Inconclusive results are not listed. Activity calls are given as the source filed them. Calls come from the whole dose curve; as a rule, active = well fitted inhibition curve with a large enough effect; inconclusive = small, poorly fitted or top-dose-only effect; inactive = flat fitted curve, though single readings scatter.
Experimental endpoint: outcome

Molecule | Observed value
CC(CCc1ccccc1)NCC(O)c1ccc(O)c(C(N)=O)c1 (stereo unspecified) | inactive
CC[C@H](C)C(=O)O[C@H]1CCC=C2C=C[C@H](C)[C@H](CC[C@@H]3C[C@@H](O)CC(=O)O3)[C@H]21 | inactive
O=C(O)c1cc2cc(Cc3cccnc3)ccc2o1 | inactive
CN1C2CCC1CC(OC(=O)c1c[nH]c3ccccc13)C2 (stereo unspecified) | inactive
O=C1CCC(c2ccc(-n3ccnc3)cc2)=NN1 | inactive
CCC(NC(C)C)C(O)c1ccc(O)c(O)c1 (stereo unspecified) | inactive
CNCCC(Oc1ccccc1C)c1ccccc1 (stereo unspecified) | inactive
N[C@H](CO)C(=O)O | inactive
C[C@]12CC[C@@H]3c4ccc(O)cc4CC[C@H]3[C@@H]1CC[C@@H]2O | inactive
CCCn1c(=O)[nH]c(=O)c2[nH]cnc21 | inactive
CC(C)COC(=O)OCN1C(=O)CN(CCN2CC(=O)N(COC(=O)OCC(C)C)C(=O)C2)CC1=O | inactive

----------
test system: CP315; assay: qHTS profiling for inhibitors of Plasmodium falciparum proliferation (AID 504749); further: nearly all actives have a fitted effect of over 60% in size; details: P. falciparum in erythrocytes, SYBR Green DNA, 72 h; series mostly up to 28.7 µM
Results filed as inconclusive are left out. Activity calls are given as the source filed them. Calls follow the shape of the dose curve; as a rule, active = well fitted inhibition curve with a large enough effect; inconclusive = small, poorly fitted or top-dose-only effect; inactive = flat fitted curve, though single readings scatter. Numbered stars: 1 amine (or outer) side, 2 acyl side, 3 side chain; on linkers, the order of the positions; unused ones are H or OH. Bridge positions count the residues as written; N and C are the ends. Square brackets hold non-standard residues; d marks the D form. Peptide text beside a SMILES is read from it. I, II: the chains in the order shown. Actinocin(9to1) = Cc1c2oc3c(C)ccc(C(=O)[*:1])c3nc-2c(C(=O)[*:2])c(N)c1=O; NMeV = CN[C@H](C(=O)O)C(C)C; Sar = CNCC(=O)O
Classes used: active, inactive

Compound | Assigned class
O=c1ccc2ccccc2o1 | inactive
CC(C)(C)CC(C)(C)c1ccc(OCCOCC[N+](C)(C)Cc2ccccc2)cc1 | active
Oc1ccc(Cl)cc1Sc1cc(Cl)ccc1O | inactive
CCCCCCC[N+](CC)(CC)CCCCc1ccc(Cl)cc1 | active
C[C@]12CC[C@@H]3c4ccc(O)cc4CC[C@H]3[C@@H]1CC[C@@H]2O | inactive
CCCCCCc1ccc(O)cc1O | inactive
Cc1c2oc3c(C)ccc(C(=O)N[C@@H]4C(=O)N[C@H](C(C)C)C(=O)N5CCC[C@H]5C(=O)N(C)CC(=O)N(C)[C@@H](C(C)C)C(=O)O[C@@H]4C)c3nc-2c(C(=O)N[C@@H]2C(=O)N[C@H](C(C)C)C(=O)N3CCC[C@H]3C(=O)N(C)CC(=O)N(C)[C@@H](C(C)C)C(=O)O[C@@H]2C)c(N)c1=O (I: T[dV]P[Sar][NMeV] / II: T[dV]P[Sar][NMeV]; ester I:1-I:C, II:1-II:C; linker I:N-II:N via Actinocin(9to1)) | active
